test-summary: Plasma concentrations (PK), Example 1
Type: in vivo, human
settings: human, plasma, oral, 100 mg, weight >90 kg, 100 mg BID, Week 12, Peak; read-out: Plasma concentration, Geometric Mean
measured-parameter: level at 2016 h (ng/mL)
One number for each entry, in ng/mL.

Form: compound = CC(=O)NCCCC[C@@H]1NC(=O)[C@H](Cc2c[nH]c3c(C)cccc23)NC(=O)[C@H]([C@@H](C)O)NC(=O)[C@H](CC(N)=O)NC(=O)[C@@H](NC(C)=O)C(C)(C)SSC(C)(C)[C@@H](C(=O)N[C@@H](Cc2ccc(OCCN)cc2)C(=O)N[C@@H](Cc2ccc3ccccc3c2)C(=O)NC2(C(=O)N[C@@H](CCC(=O)O)C(=O)N[C@@H](CC(N)=O)C(=O)N[C@@H](Cc3cccnc3)C(=O)N(C)CC(N)=O)CCOCC2)NC1=O [IL-23 receptor antagonist peptide] ; level at 2016 h = 2.13

====

test-summary: Plasma concentrations (PK), Example 1
Type: in vivo, human
settings: human, plasma, oral, 50 mg, weight >90 kg, 50 mg QD, Week 12, Peak; read-out: Plasma concentration, Geometric Mean
Method: For QD dosing, peak concentration was defined as any PK sample taken between 0.25 to <6 hours after the last morning dose and trough concentration was at least 20 hours after the last morning dose. For BID dosing, peak concentration was defined as any PK sample taken between 0.25 to <4 hours after the last dose and trough concentration was at least 8 hours after the last dose.
measured-parameter: level at 2016 h (ng/mL)
Numbers only, in ng/mL.

Form: compound = CC(=O)NCCCC[C@@H]1NC(=O)[C@H](Cc2c[nH]c3c(C)cccc23)NC(=O)[C@H]([C@@H](C)O)NC(=O)[C@H](CC(N)=O)NC(=O)[C@@H](NC(C)=O)C(C)(C)SSC(C)(C)[C@@H](C(=O)N[C@@H](Cc2ccc(OCCN)cc2)C(=O)N[C@@H](Cc2ccc3ccccc3c2)C(=O)NC2(C(=O)N[C@@H](CCC(=O)O)C(=O)N[C@@H](CC(N)=O)C(=O)N[C@@H](Cc3cccnc3)C(=O)N(C)CC(N)=O)CCOCC2)NC1=O [IL-23 receptor antagonist peptide] ; level at 2016 h = 0.551

====

test-summary: Plasma concentrations (PK), Example 1
Format: in vivo, human
settings: human, plasma, oral, 50 mg, 50 mg QD; Week 4; Peak; read-out: Plasma concentration, Median
measured-parameter: level at 672 h (ng/mL)
Answers are plain numbers, in ng/mL.

Form: compound = CC(=O)NCCCC[C@@H]1NC(=O)[C@H](Cc2c[nH]c3c(C)cccc23)NC(=O)[C@H]([C@@H](C)O)NC(=O)[C@H](CC(N)=O)NC(=O)[C@@H](NC(C)=O)C(C)(C)SSC(C)(C)[C@@H](C(=O)N[C@@H](Cc2ccc(OCCN)cc2)C(=O)N[C@@H](Cc2ccc3ccccc3c2)C(=O)NC2(C(=O)N[C@@H](CCC(=O)O)C(=O)N[C@@H](CC(N)=O)C(=O)N[C@@H](Cc3cccnc3)C(=O)N(C)CC(N)=O)CCOCC2)NC1=O [IL-23 receptor antagonist peptide] ; level at 672 h = 0.539

====

test-summary: Plasma concentrations (PK), Example 1
Type: in vivo, human
settings: human, plasma, oral, 25 mg, weight >90 kg, 25 mg BID, Week 12, Peak; read-out: Plasma concentration, Geometric Mean
Procedure: For QD dosing, peak concentration was defined as any PK sample taken between 0.25 to <6 hours after the last morning dose and trough concentration was at least 20 hours after the last morning dose. For BID dosing, peak concentration was defined as any PK sample taken between 0.25 to <4 hours after the last dose and trough concentration was at least 8 hours after the last dose.
measured-parameter: level at 2016 h
For clarity, give the value followed by its unit.

Form: molecule = CC(=O)NCCCC[C@@H]1NC(=O)[C@H](Cc2c[nH]c3c(C)cccc23)NC(=O)[C@H]([C@@H](C)O)NC(=O)[C@H](CC(N)=O)NC(=O)[C@@H](NC(C)=O)C(C)(C)SSC(C)(C)[C@@H](C(=O)N[C@@H](Cc2ccc(OCCN)cc2)C(=O)N[C@@H](Cc2ccc3ccccc3c2)C(=O)NC2(C(=O)N[C@@H](CCC(=O)O)C(=O)N[C@@H](CC(N)=O)C(=O)N[C@@H](Cc3cccnc3)C(=O)N(C)CC(N)=O)CCOCC2)NC1=O [IL-23 receptor antagonist peptide] ; level at 2016 h = 0.32 ng/mL

====

test-summary: Plasma concentrations (PK), Example 1
Assay type: in vivo, human
settings: human, plasma, oral, 25 mg, 25 mg QD; Week 8; Peak; read-out: Plasma concentration, Median
Description: For QD dosing, peak concentration was defined as any PK sample taken between 0.25 to <6 hours after the last morning dose and trough concentration was at least 20 hours after the last morning dose. For BID dosing, peak concentration was defined as any PK sample taken between 0.25 to <4 hours after the last dose and trough concentration was at least 8 hours after the last dose.
measured-parameter: level at 1344 h
For clarity, give the value followed by its unit.

Form: compound = CC(=O)NCCCC[C@@H]1NC(=O)[C@H](Cc2c[nH]c3c(C)cccc23)NC(=O)[C@H]([C@@H](C)O)NC(=O)[C@H](CC(N)=O)NC(=O)[C@@H](NC(C)=O)C(C)(C)SSC(C)(C)[C@@H](C(=O)N[C@@H](Cc2ccc(OCCN)cc2)C(=O)N[C@@H](Cc2ccc3ccccc3c2)C(=O)NC2(C(=O)N[C@@H](CCC(=O)O)C(=O)N[C@@H](CC(N)=O)C(=O)N[C@@H](Cc3cccnc3)C(=O)N(C)CC(N)=O)CCOCC2)NC1=O [IL-23 receptor antagonist peptide] ; level at 1344 h = 0.325 ng/mL

====

test-summary: Plasma concentrations (PK), Example 1
Format: in vivo, human
settings: human, plasma, oral, 25 mg, weight >90 kg, 25 mg BID, Week 16, Trough; read-out: Plasma concentration, Geometric Mean
measured-parameter: level at 2688 h (ng/mL)
Answers are plain numbers, in ng/mL.

Form: compound = CC(=O)NCCCC[C@@H]1NC(=O)[C@H](Cc2c[nH]c3c(C)cccc23)NC(=O)[C@H]([C@@H](C)O)NC(=O)[C@H](CC(N)=O)NC(=O)[C@@H](NC(C)=O)C(C)(C)SSC(C)(C)[C@@H](C(=O)N[C@@H](Cc2ccc(OCCN)cc2)C(=O)N[C@@H](Cc2ccc3ccccc3c2)C(=O)NC2(C(=O)N[C@@H](CCC(=O)O)C(=O)N[C@@H](CC(N)=O)C(=O)N[C@@H](Cc3cccnc3)C(=O)N(C)CC(N)=O)CCOCC2)NC1=O [IL-23 receptor antagonist peptide] ; level at 2688 h = 0.144

====

test-summary: Plasma concentrations (PK), Example 1
Assay type: in vivo, human
settings: human, plasma, oral, 50 mg, 50 mg QD; Week 8; Peak; read-out: Plasma concentration, Median
measured-parameter: level at 1344 h

Form: compound = CC(=O)NCCCC[C@@H]1NC(=O)[C@H](Cc2c[nH]c3c(C)cccc23)NC(=O)[C@H]([C@@H](C)O)NC(=O)[C@H](CC(N)=O)NC(=O)[C@@H](NC(C)=O)C(C)(C)SSC(C)(C)[C@@H](C(=O)N[C@@H](Cc2ccc(OCCN)cc2)C(=O)N[C@@H](Cc2ccc3ccccc3c2)C(=O)NC2(C(=O)N[C@@H](CCC(=O)O)C(=O)N[C@@H](CC(N)=O)C(=O)N[C@@H](Cc3cccnc3)C(=O)N(C)CC(N)=O)CCOCC2)NC1=O [IL-23 receptor antagonist peptide] ; level at 1344 h = 0.78 ng/mL

====

test-summary: Plasma concentrations (PK), Example 1
Format: in vivo, human
settings: human, plasma, oral, 50 mg, weight >90 kg, 50 mg QD, Week 16, Intermediate; read-out: Plasma concentration, Mean
measured-parameter: level at 2688 h (ng/mL)
Give bare numbers, in ng/mL.

Form: molecule = CC(=O)NCCCC[C@@H]1NC(=O)[C@H](Cc2c[nH]c3c(C)cccc23)NC(=O)[C@H]([C@@H](C)O)NC(=O)[C@H](CC(N)=O)NC(=O)[C@@H](NC(C)=O)C(C)(C)SSC(C)(C)[C@@H](C(=O)N[C@@H](Cc2ccc(OCCN)cc2)C(=O)N[C@@H](Cc2ccc3ccccc3c2)C(=O)NC2(C(=O)N[C@@H](CCC(=O)O)C(=O)N[C@@H](CC(N)=O)C(=O)N[C@@H](Cc3cccnc3)C(=O)N(C)CC(N)=O)CCOCC2)NC1=O [IL-23 receptor antagonist peptide] ; level at 2688 h = 0.321

====

test-summary: Plasma concentrations (PK), Example 1
Format: in vivo, human
settings: human, plasma, oral, 100 mg, 100 mg QD; Week 8; Peak; read-out: Plasma concentration, Geometric Mean
measured-parameter: level at 1344 h (ng/mL)
Give bare numbers, in ng/mL.

Form: compound = CC(=O)NCCCC[C@@H]1NC(=O)[C@H](Cc2c[nH]c3c(C)cccc23)NC(=O)[C@H]([C@@H](C)O)NC(=O)[C@H](CC(N)=O)NC(=O)[C@@H](NC(C)=O)C(C)(C)SSC(C)(C)[C@@H](C(=O)N[C@@H](Cc2ccc(OCCN)cc2)C(=O)N[C@@H](Cc2ccc3ccccc3c2)C(=O)NC2(C(=O)N[C@@H](CCC(=O)O)C(=O)N[C@@H](CC(N)=O)C(=O)N[C@@H](Cc3cccnc3)C(=O)N(C)CC(N)=O)CCOCC2)NC1=O [IL-23 receptor antagonist peptide] ; level at 1344 h = 0.892

Source: patent US20260232767A1
